- Tested on: human red blood cells (hRBC)
- Assay Protocol: Hemolysis of human red blood cells
- Format: cell-based
- Assay Conditions: red cells of human, 1 h, 100
Where a SMILES comes first, the peptide text is derived from it. [ ]: non-standard residue; d: D form. The star is where a group is joined. Cha = N[C@@H](CC1CCCCC1)C(=O)O; Tle = CC(C)(C)[C@H](N)C(=O)O; dDab = NCC[C@@H](N)C(=O)O; Orn = NCCC[C@H](N)C(=O)O; Dab = NCC[C@H](N)C(=O)O; Dap = NC[C@H](N)C(=O)O; X3 = O=C(C(O)CO)*
Readout Type: Hemolysis at 100 μg/ml (%)

INSERT INTO measurements (compound, units, endpoint_result) VALUES
  ('C[C@@H]1NC(=O)[C@H](C(C)(C)C)NC(=O)[C@H](CCN)NC(=O)[C@H](Cc2c[nH]c3ccccc23)NC(=O)[C@H](CCN)NC(=O)[C@@H](CCN)NC(=O)[C@H](CCCN)NC(=O)[C@H](CCN)NC(=O)[C@H](CC2CCCCC2)NC(=O)[C@H](CNC(=O)C(O)CO)NC(=O)[C@H](Cc2c[nH]c3ccccc23)NC(=O)[C@@H]2CCCN2C(=O)[C@H]2CCCN2C(=O)[C@H](CO)NC1=O (some centres unmarked) [compound 13] (cyclo(W[Dap](X3)[Cha][Dab][Orn][dDab][Dab]W[Dab][Tle]AS[dP]P))', '%', 2),
  ('CC(C)C[C@@H]1NC(=O)[C@@H]2CCCN2C(=O)[C@H]2CCCN2C(=O)[C@H](CO)NC(=O)[C@H](C)NC(=O)[C@H](C(C)(C)C)NC(=O)[C@H](CCN)NC(=O)[C@H](Cc2c[nH]c3ccccc23)NC(=O)[C@H](CCN)NC(=O)[C@@H](CCN)NC(=O)[C@H](CCCN)NC(=O)[C@H](CCN)NC(=O)[C@H](Cc2c[nH]c3ccccc23)NC(=O)[C@H](CO)NC1=O [compound 33] (cyclo(LSW[Dab][Orn][dDab][Dab]W[Dab][Tle]AS[dP]P))', '%', 3.5);

###

- Tested on: human red blood cells (hRBC)
- Assay Protocol: Hemolysis of human red blood cells
- Format: cell-based
- Assay Conditions: red cells of human, 1 h, 100
Where a SMILES comes first, the peptide text is derived from it. [ ]: non-standard residue; d: D form. Abu(4,4,4-F3) = N[C@@H](CC(F)(F)F)C(=O)O; Chg = N[C@H](C(=O)O)C1CCCCC1; Tle = CC(C)(C)[C@H](N)C(=O)O; dDab = NCC[C@@H](N)C(=O)O; Orn = NCCC[C@H](N)C(=O)O; Dab = NCC[C@H](N)C(=O)O
Readout Type: Hemolysis at 100 μg/ml (%)

INSERT INTO assay_data (compound, readout_type, endpoint_result) VALUES
  ('C[C@@H]1NC(=O)[C@H](C(C)(C)C)NC(=O)[C@H](CCN)NC(=O)[C@H](Cc2c[nH]c3ccccc23)NC(=O)[C@H](CCN)NC(=O)[C@@H](CCN)NC(=O)[C@H](CCCN)NC(=O)[C@H](CCN)NC(=O)[C@H](Cc2ccc(O)cc2)NC(=O)[C@H](CO)NC(=O)[C@H](CC(F)(F)F)NC(=O)[C@@H]2CCCN2C(=O)[C@H]2CCCN2C(=O)[C@H](CO)NC1=O [compound 156] (cyclo([Abu(4,4,4-F3)]SY[Dab][Orn][dDab][Dab]W[Dab][Tle]AS[dP]P))', 'Hemolysis at 100 μg/ml', 1),
  ('CC[C@H](C)[C@@H]1NC(=O)[C@@H]2CCCN2C(=O)[C@H]2CCCN2C(=O)[C@H](CO)NC(=O)[C@H](C)NC(=O)[C@H](C2CCCCC2)NC(=O)[C@H](CCN)NC(=O)[C@H](Cc2c[nH]c3ccccc23)NC(=O)[C@H](CCN)NC(=O)[C@@H](CCN)NC(=O)[C@H](CCCN)NC(=O)[C@H](CCN)NC(=O)[C@H](C(C)(C)C)NC(=O)[C@H](CO)NC1=O [compound 136] (cyclo(IS[Tle][Dab][Orn][dDab][Dab]W[Dab][Chg]AS[dP]P))', 'Hemolysis at 100 μg/ml', 5);

###

- Test system: human red blood cells (hRBC)
- Assay Protocol: Hemolysis of human red blood cells
- Type: cell-based
- Assay Conditions: red cells of human, 1 h, 100
Where a SMILES comes first, the peptide text is derived from it. [ ]: non-standard residue; d: D form. Oic = O=C(O)[C@@H]1C[C@@H]2CCCC[C@@H]2N1; Cha = N[C@@H](CC1CCCCC1)C(=O)O; Tle = CC(C)(C)[C@H](N)C(=O)O; dDab = NCC[C@@H](N)C(=O)O; Orn = NCCC[C@H](N)C(=O)O; Dab = NCC[C@H](N)C(=O)O
Readout Type: Hemolysis at 100 μg/ml

INSERT INTO assay_data (compound, endpoint_result) VALUES
  ('COC[C@@H]1NC(=O)[C@H](C(C)(C)C)NC(=O)[C@H](CCN)NC(=O)[C@H](Cc2c[nH]c3ccccc23)NC(=O)[C@H](CCN)NC(=O)[C@@H](CCN)NC(=O)[C@H](CCCN)NC(=O)[C@H](CCN)NC(=O)[C@H](CC2CCCCC2)NC(=O)[C@H](C)NC(=O)[C@H](Cc2c[nH]c3ccccc23)NC(=O)[C@@H]2C[C@@H]3CCCC[C@@H]3N2C(=O)[C@H]2CCCN2C(=O)[C@H](CO)NC1=O [Ex. 54] (cyclo(A[Cha][Dab][Orn][dDab][Dab]W[Dab][Tle]S(Me)S[dP][Oic]W))', '3%'),
  ('CC(C)[C@@H]1NC(=O)[C@@H]2CCCN2C(=O)[C@H]2CCCN2C(=O)[C@H](CO)NC(=O)[C@H](C)NC(=O)[C@H](C(C)(C)C)NC(=O)[C@H](CCN)NC(=O)[C@H](Cc2c[nH]c3ccccc23)NC(=O)[C@H](CCN)NC(=O)[C@@H](CCN)NC(=O)[C@H](CCCN)NC(=O)[C@H](CCN)NC(=O)[C@H](Cc2ccc(O)cc2)NC(=O)[C@H](CO)NC1=O [compound 45] (cyclo(VSY[Dab][Orn][dDab][Dab]W[Dab][Tle]AS[dP]P))', '2%');

###

- System: human red blood cells (hRBC)
- Assay Protocol: Hemolysis of human red blood cells
- Format: cell-based
- Assay Conditions: red cells of human, 1 h, 100
Where a SMILES comes first, the peptide text is derived from it. [ ]: non-standard residue; d: D form. Tle = CC(C)(C)[C@H](N)C(=O)O; dDab = NCC[C@@H](N)C(=O)O; Orn = NCCC[C@H](N)C(=O)O; Dab = NCC[C@H](N)C(=O)O
Readout Type: Hemolysis at 100 μg/ml (%)

INSERT INTO assay_data (compound, tested_system, readout_type, endpoint_result) VALUES
  ('C[C@@H]1NC(=O)[C@H](Cc2c[nH]c3ccccc23)NC(=O)[C@@H]2CCCN2C(=O)[C@H]2CCCN2C(=O)[C@H](CO)NC(=O)[C@H](C)NC(=O)[C@H](C(C)(C)C)NC(=O)[C@H](CCN)NC(=O)[C@H](Cc2c[nH]c3ccccc23)NC(=O)[C@H](CCN)NC(=O)[C@@H](CCN)NC(=O)[C@H](CCCN)NC(=O)[C@H](CCN)NC(=O)[C@H](Cc2ccc(O)cc2)NC1=O [compound 4] (cyclo(WAY[Dab][Orn][dDab][Dab]W[Dab][Tle]AS[dP]P))', 'human red blood cells (hRBC)', 'Hemolysis at 100 μg/ml', 1);

###

- Tested on: human red blood cells (hRBC)
- Assay Protocol: Hemolysis of human red blood cells
- Type: cell-based
- Assay Conditions: red cells of human, 1 h, 100
*1 amine or outer side, *2 acyl side, *3 side chain or, on linkers, in order; H or OH if unused. Where a SMILES comes first, the peptide text is derived from it. Side-chain parts run from the residue outwards. [ ]: non-standard residue; d: D form. The star is where a group is joined. Cha = N[C@@H](CC1CCCCC1)C(=O)O; Chg = N[C@H](C(=O)O)C1CCCCC1; Tle = CC(C)(C)[C@H](N)C(=O)O; dDab = NCC[C@@H](N)C(=O)O; Orn = NCCC[C@H](N)C(=O)O; Dab = NCC[C@H](N)C(=O)O; Nva = CCC[C@H](N)C(=O)O; Dap = NC[C@H](N)C(=O)O; CO = O=C([*:1])[*:2]; NHiPr = CC(C)N*
Readout Type: Hemolysis at 100 μg/ml (%)

INSERT INTO results (compound, units, endpoint_result) VALUES
  ('CC(C)NC(=O)NC[C@@H]1NC(=O)[C@H](Cc2c[nH]c3ccccc23)NC(=O)[C@@H]2CCCN2C(=O)[C@H]2CCCN2C(=O)[C@H](CO)NC(=O)[C@H](C)NC(=O)[C@H](C(C)(C)C)NC(=O)[C@H](CCN)NC(=O)[C@H](Cc2c[nH]c3ccccc23)NC(=O)[C@H](CCN)NC(=O)[C@@H](CCN)NC(=O)[C@H](CCCN)NC(=O)[C@H](CCN)NC(=O)[C@H](CC2CCCCC2)NC1=O [compound 17] (cyclo(W[Dap]([CO-NHiPr])[Cha][Dab][Orn][dDab][Dab]W[Dab][Tle]AS[dP]P))', '%', 6),
  ('CCC[C@@H]1NC(=O)[C@@H]2CCCN2C(=O)[C@H]2CCCN2C(=O)[C@H](CO)NC(=O)[C@H](C)NC(=O)[C@H](C2CCCCC2)NC(=O)[C@H](CCN)NC(=O)[C@H](Cc2c[nH]c3ccccc23)NC(=O)[C@H](CCN)NC(=O)[C@@H](CCN)NC(=O)[C@H](CCCN)NC(=O)[C@H](CCN)NC(=O)[C@H](CC2CCCCC2)NC(=O)[C@H](CO)NC1=O [compound 134] (cyclo([Nva]S[Cha][Dab][Orn][dDab][Dab]W[Dab][Chg]AS[dP]P))', '%', 8);
